Compiled notes: published IC50 values involving RAC-alpha serine/threonine-protein kinase (Homo sapiens, UniProt P31749).

Examples with answers:
| compound | target entity | experimental value |
| --- | --- | --- |
| Nc1nnc(-c2cnc(-c3ccc(CN4CCC(c5cc(-c6ccncc6)[nH]n5)CC4)cc3)c(-c3ccccc3)c2)s1 | RAC-alpha serine/threonine-protein kinase (Homo sapiens, UniProt P31749) | 123 nM |
| Nc1ncnc2c1cnn2C1CCN(Cc2ccc(-c3ncc(-c4nccs4)cc3-c3ccccc3)cc2)CC1 | RAC-alpha serine/threonine-protein kinase (Homo sapiens, UniProt P31749) | 264 nM |
| Nc1nnc(-c2cnc(-c3ccc(CNCCC(=O)c4ccccc4N)cc3)c(-c3ccccc3)c2)s1 | RAC-alpha serine/threonine-protein kinase (Homo sapiens, UniProt P31749) | 114 nM |
| O=c1oc2ccc(O)cc2c2c1NCCC2 | RAC-alpha serine/threonine-protein kinase (Homo sapiens, UniProt P31749) | > 50000 nM |

So what does the record say about IC50 for COc1ccc(O)c(C(=O)c2ccc(NC[C@@H]3CCCNC[C@H]3NC(=O)c3ccncc3)cc2)c1F ?
25000 nM

What would you report for O=C(O)c1cc(C(=O)C2CCCCC2)c[nH]1 ?
> 100000 nM

What would you report for CCCc1cc(=O)[nH]c(SCCCCN2C(=O)c3ccccc3C2=O)n1 ?
> 100000 nM

What would you report for Cc1c(C#N)c(N)nc(Cl)c1C#N ?
> 100000 nM

What would you report for Nc1ncnc2c1cnn2C1CCN(Cc2ccc(-c3ncc(-c4ncon4)cc3-c3ccccc3)cc2)CC1 ?
180 nM
